# Tested on: Escherichia coli TOP10;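 note: peptides expressed intracellularly from a pBAD plasmid library in pooled LB shake-flask culture, induced with 0.3% L-arabinose, DNA abundance read by NGS, three biological replicates, DESeq2 with apeglm shrinkage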
# Protocol Notes: shrunken log2 fold change of peptide-encoding DNA abundance (4.5 h post-induction vs induction); higher = less antimicrobial activity (less host growth inhibition)
# Reported Conditions: time post-induction: 4.5 h; library: site-saturation at positions 5, 18, 19, 20
# reported shrunken log2 fold change; entries follow
Respond with the number and no other words.

{"columns": ["Sequence Content", "shrunken log2 fold change"],
 "data": [
  ["RRIRYRPPRLPRPRPRPTPCPRP", -0.122],
  ["RRIRQRPPRLPRPRPRPVDKPRP", -0.0881],
  ["RRIRCRPPRLPRPRPRPGNCPRP", -0.0286],
  ["RRIRMRPPRLPRPRPRPTPMPRP", 0.981],
  ["RRIRTRPPRLPRPRPRPIMLPRP", -0.32],
  ["RRIRWRPPRLPRPRPRPISPPRP", -0.887],
  ["RRIRHRPPRLPRPRPRPRTPPRP", 0.314],
  ["RRIRARPPRLPRPRPRPTSYPRP", -0.0752]
]}

Given the entry RRIRARPPRLPRPRPRPVMYPRP , report its measured shrunken log2 fold change.
0.0749

Given the entry RRIRSRPPRLPRPRPRPHQGPRP , report its measured shrunken log2 fold change.
0.0275
